- Test method notes: Therapeutic index, ratio of cytotoxicity against HEK293T cells to MIC for log phase culture of Mycobacterium tuberculosis H37Rv ATCC 27294
- Type: cell-based, HEK-293T
- Settings: human, read-out: TI
Parameter: selectivity ratio

Using the record for O=C(Nc1ncc([N+](=O)[O-])s1)c1ccc([N+](=O)[O-])o1 , state its measured selectivity ratio. > 20

----------
viability at 100 µM values by entry
- Test method notes: Cytotoxicity against HEK293T cells assessed as cellular growth at 100 uM by MTT assay
- Assay type: cell-based, HEK-293T
- Settings: human, read-out: Activity
Just so you know, I need the unit written after the number.

COOc1ccc(-c2ccc(C(=O)Nc3ncc([N+](=O)[O-])s3)o2)cc1; 95.7%
O=C(Nc1ncc([N+](=O)[O-])s1)c1ccc(-c2ccc(Br)cc2)o1; 70.3%
O=C(Nc1ncc([N+](=O)[O-])s1)c1cc(Cl)cc(Cl)c1O; 23.5%
O=C(Nc1ncc([N+](=O)[O-])s1)c1ccc(-c2ccc(Cl)cc2)o1; 74.1%
O=C(Nc1ncc([N+](=O)[O-])s1)c1cc(Cl)ccc1O; 63%

Using the record for CC(C)c1cc(C(=O)Nc2ncc([N+](=O)[O-])s2)c(O)c(C(C)C)c1 , state its measured viability at 100 µM. 7.1%

Using the record for O=C(Nc1ncc([N+](=O)[O-])s1)c1ccc([N+](=O)[O-])s1 , state its measured viability at 100 µM. 35.9%

Using the record for CC(=O)Oc1ccc(Cl)cc1C(=O)Nc1ncc([N+](=O)[O-])s1 , state its measured viability at 100 µM. 31.1%

Using the record for O=C(Oc1c(Cl)cc(Cl)cc1C(=O)Nc1ncc([N+](=O)[O-])s1)c1ccccc1 , state its measured viability at 100 µM. 61.6%

Using the record for O=C(Nc1ncc([N+](=O)[O-])s1)c1ccc(-c2ccc([N+](=O)[O-])cc2)o1 , state its measured viability at 100 µM. 79.2%
